# measured_on: T1, recombinant hTfR, extracellular region of human transferrin receptor with a histidine tag added at the … (human, UniProt P02786 89-760)
# T1 construct: also called hTfR-ECD(Histag); human TfR; not shown: N-terminal histidine tag
# protocol: BLI (OctetRED96), His-tagged TfR ECD on Ni-NTA sensor, peptide in solution
quantity_measured: Kd (nM)
Return type: number; implicit unit nM.

These solved cases illustrate the format of a correct answer.
>>> observed("hTfR affinity peptide 4 (VHH, The tag is stated only for peptide 1; Peptides 2 to 5 were obtained 'in the same manner'; also called clone 4; VHH(4)) VHH: QVQLVESGGGLVQAGASLRLSCAASGRTDGIDRMAWFHQAPGEGREFVAGINKRGGGVDYAPGVKGRFTLSLDSDKNTLYLQMNNLRLEDTGVYSCAVGSGRIIVKSDTWGQGTQVTVSS")
11.9
>>> observed("hTfR affinity peptide 1 (VHH, Expressed in CHO-S cells, purified on Anti-FLAG M1 agarose; also called clone 1; VHH(1)) VHH: QVQLVESGGGLVHPGGSLRLSCVASGTSFSLNVVTWYRQALGKQREWVATINQSEAPTYADSVKGRFTISRDGAKNTVYLQMNSLVTEDTALYYCYDRYNEIRGQGTQVTVSS")
97

QUERY: Item hTfR affinity peptide 2 (VHH, The tag is stated only for peptide 1; Peptides 2 to 5 were obtained 'in the same manner'; also called clone 2; VHH(2)) VHH: QVQLVESGGGLVHPGGSLSLSCAASGTSFSFNTVTWYRQALGKQREWVATINGSGAPTYADSVKGRFTISRDGAKNTVYLLMNSLVTEDTALYYCYDRYNEIRGQGTQVTVSS : provide Kd
RESULT: 61.4

QUERY: Item hTfR affinity peptide 3 (VHH, The tag is stated only for peptide 1; Peptides 2 to 5 were obtained 'in the same manner'; also called clone 3; VHH(3)) VHH: QVQLVESGGGLVQPGESLRLSCAASGSIFDIYVMRWYRQAPGNQREWVASIYDGGRNDYDNVVKGRFTISRDNAKNTVHLQMNSLKPEDTAVYFCNVLTYAGRPYWGQGTQVTVSS : provide Kd
RESULT: 10.5
